Recorded values, source patent US11479533B2.

Test system: ppMlc (T18/S19) levels in A7R5 cells
Assay explanation: A7R5 in-cell ELISA assay (ppMlc)
Assay type: cell-based, rat
Condition label: Rattus norvegicus, A7R5, A7R5 cells, Table 2; read-out: pMLC IC50 (nM) A7R5
Readout name: log10 of IC50 (log10 of the value in nM)

[
  {
    "Compound": "CNC(C(=O)Nc1cc(F)c(-c2cn[nH]c2)cc1OCCCN(C)C)c1cccc(OC)c1 (stereo not drawn)",
    "log10 of IC50": 2.13
  },
  {
    "Compound": "CN[C@@H](C(=O)Nc1cc(F)c(-c2cn[nH]c2)cc1OCCN(C)C)c1cccc(OC)c1",
    "log10 of IC50": 2.58
  },
  {
    "Compound": "COc1cccc([C@H](NCCN(C)C)C(=O)Nc2ccc(-c3cn[nH]c3)cc2)c1",
    "log10 of IC50": 2.84
  },
  {
    "Compound": "CN[C@H](C(=O)Nc1cc(F)c(-c2cn[nH]c2)cc1OCCN(C)C)c1cccc(OC)c1",
    "log10 of IC50": 1.18
  },
  {
    "Compound": "CNC(C(=O)Nc1ccc(-c2cn[nH]c2)cc1)c1ccc(OC)cc1 (stereo not drawn)",
    "log10 of IC50": 2.55
  },
  {
    "Compound": "COc1cccc(C(NCCOCC(F)(F)F)C(=O)Nc2ccc(-c3cn[nH]c3)cc2)c1 (stereo not drawn)",
    "log10 of IC50": 3.18
  },
  {
    "Compound": "CNC(C(=O)Nc1cc(F)c(-c2cn[nH]c2)cc1OCCN(C)C)c1cccc(OC)c1 (stereo not drawn)",
    "log10 of IC50": 1.76
  },
  {
    "Compound": "COCCN[C@H](C(=O)Nc1ccc(-c2cn[nH]c2)cc1)c1cccc(OC)c1",
    "log10 of IC50": 3.62
  },
  {
    "Compound": "CNC(C(=O)Nc1ccc(-c2cn[nH]c2)cc1)c1cccc(C(=O)OC)c1 (stereo not drawn)",
    "log10 of IC50": 2.39
  },
  {
    "Compound": "COc1cccc(C(NCCOC(C)C)C(=O)Nc2ccc(-c3cn[nH]c3)cc2)c1 (stereo not drawn)",
    "log10 of IC50": 2.80
  },
  {
    "Compound": "COCCN[C@@H](C(=O)Nc1ccc(-c2cn[nH]c2)cc1)c1cccc(OC)c1",
    "log10 of IC50": 2.68
  },
  {
    "Compound": "CN[C@H](C(=O)Nc1ccc(-c2cn[nH]c2)cc1)c1cccc(OC)c1",
    "log10 of IC50": 2.03
  }
]
